The origin of these recorded values is the supplement of paper PMC10567573.

Reported protein stability index values are given for each entry in this list.
B1: DULLARD (parent)
chain: LVVFTASMEIYGSAVADKLDNSRS

variants of: B1; experiment: protein stability index of a GFP-peptide fusion (GPS, HEK-293T) (PSI 1-6); higher = more stable; details: c terminus: a fixed tail appended;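 also: lentivirally expressed fusions sorted by FACS into six bins by GFP to DsRed ratio, PSI derived from sequencing read proportions per bin multiplied by bin number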
measurementLabel: protein stability index

>>> df
    alteration         measurementlabel  measurednumber
 0        R23D  protein stability index            1.75
 1        Y11K  protein stability index            1.51
 2        A16Q  protein stability index            2.02
 3         V2P  protein stability index            2.93
 4        I10N  protein stability index            1.98
 5         A6N  protein stability index            1.53
 6        A14N  protein stability index            2.84
 7        S22Y  protein stability index            2.24
 8        L19S  protein stability index            2.02
 9        S22P  protein stability index            2.62
10         M8S  protein stability index            1.02
11        D20Y  protein stability index            2.51
12        V15A  protein stability index               2
13        G12V  protein stability index            3.44
14        A16F  protein stability index            4.14
15         V3N  protein stability index            2.75
16        L19K  protein stability index            1.66
17         T5H  protein stability index            1.99
18         T5M  protein stability index            3.54
19         E9L  protein stability index            3.73
20         L1V  protein stability index            3.46
21        S13D  protein stability index            2.37
22         F4R  protein stability index            2.14
23        A16D  protein stability index            3.11
24        V15I  protein stability index            3.03
25         V2C  protein stability index            1.61
26        R23K  protein stability index            1.71
27        Y11E  protein stability index            2.44
28         L1P  protein stability index            3.74
29         E9R  protein stability index            2.71
30         V3G  protein stability index            2.75
31         E9F  protein stability index            2.73
32        Y11P  protein stability index            2.01
33         M8R  protein stability index             1.9
34        K18I  protein stability index            4.09
35        S13E  protein stability index            1.36
36         M8V  protein stability index            2.73
37        S22G  protein stability index             2.5
38        L19E  protein stability index            2.17
39        S13C  protein stability index            2.05
40         T5S  protein stability index            3.15
41         M8F  protein stability index            3.03
42         F4A  protein stability index            1.61
43        L19W  protein stability index            2.27
44        A16P  protein stability index            3.45
45        A16N  protein stability index            1.46
46        D20Q  protein stability index            3.44
47         V2A  protein stability index             2.1
48        V15R  protein stability index            3.02
49         T5P  protein stability index            1.66
50        L19D  protein stability index            1.73
51        D20S  protein stability index            3.14
52        I10H  protein stability index            1.44
53        A14S  protein stability index            2.32
54        I10M  protein stability index            1.28
55        R23S  protein stability index            2.05
56        S24Q  protein stability index            2.15
57        G12P  protein stability index            2.37
58         V2E  protein stability index            2.46
59         V2Q  protein stability index            1.96
60         E9V  protein stability index               3
61         M8N  protein stability index            1.65
62         S7V  protein stability index            2.27
63         A6R  protein stability index            2.08
64        K18M  protein stability index            2.11
65        S13A  protein stability index            2.72
66        V15L  protein stability index            1.48
67         A6C  protein stability index            2.65
68        S24A  protein stability index            2.29
69         V3Y  protein stability index            2.68
70         F4W  protein stability index            3.77
71        D20E  protein stability index            1.97
72         M8C  protein stability index            1.14
73        L19M  protein stability index            2.41
74         T5V  protein stability index            3.31
75        G12W  protein stability index            2.26
76         V3S  protein stability index            1.86
77         V3C  protein stability index            2.03
78         F4K  protein stability index            2.91
79        D20K  protein stability index            1.88
80        D17H  protein stability index               3
81        Y11H  protein stability index            1.58
82         L1F  protein stability index               2
83         V2G  protein stability index            2.52
84        R23C  protein stability index            2.03
85         S7M  protein stability index             2.8
86        R23H  protein stability index            2.77
87        S13Q  protein stability index            1.29
88        N21T  protein stability index            2.67
89         A6T  protein stability index             2.8
90         V2K  protein stability index            1.78
